Assay: SU-DIPG-VI glioma cell viability, MIPE4.0 library, CellTiter-Glo luminescence, qHTS (AID 1347066);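 further: cells exposed to compound for 48 hours before readout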
Details: CellTiter-Glo ATP luminescence
Inconclusive results are not listed. The source made the active and inactive calls. Cut-off not given; nearly all actives show AC50 up to about 30 µM.
Possible outcomes: TRUE = active, FALSE = inactive

{"Compound": "Cc1cc(O)c2c(c1)C(=O)c1cc(O)cc(O)c1C2=O", "Category Label": "FALSE"}
{"Compound": "O=c1cc(O)c(Cl)c[nH]1", "Category Label": "FALSE"}
{"Compound": "CN1CCN(c2c(F)cc3c(=O)c(C(=O)O)cn4c3c2OCN4C)CC1", "Category Label": "FALSE"}
{"Compound": "CCn1cc(C(=O)O)c(=O)c2ccc(C)nc21", "Category Label": "FALSE"}
{"Compound": "CN(c1nccc(=O)[nH]1)C1CCN(c2nc3ccccc3n2Cc2ccc(F)cc2)CC1", "Category Label": "FALSE"}
{"Compound": "FC(F)c1nc2ccccc2n1-c1nc(N2CCOCC2)nc(N2CCOCC2)n1", "Category Label": "TRUE"}
{"Compound": "Cc1nc(Nc2ncc(C(=O)Nc3c(C)cccc3Cl)s2)cc(N2CCN(CCO)CC2)n1", "Category Label": "FALSE"}
{"Compound": "CN1CCN(C2=Nc3cc(Cl)ccc3Nc3ccccc32)CC1", "Category Label": "FALSE"}
{"Compound": "Nc1ccn([C@@H]2O[C@H](CO)[C@@H](O)[C@H]2O)c(=O)n1", "Category Label": "FALSE"}
{"Compound": "Cc1ccc(N(CC2=NCCN2)c2cccc(O)c2)cc1", "Category Label": "FALSE"}
{"Compound": "CC(S)C(=O)NCC(=O)O (configuration not stated)", "Category Label": "FALSE"}
{"Compound": "COc1ccc(-c2cc(=O)c3c(O)cc(O)cc3o2)cc1O", "Category Label": "TRUE"}
